# measured-on: human TGFßRII (antigen of the Octet experiments) (human, UniProt P37173 23-166)
# Sequence (P37173 23-166): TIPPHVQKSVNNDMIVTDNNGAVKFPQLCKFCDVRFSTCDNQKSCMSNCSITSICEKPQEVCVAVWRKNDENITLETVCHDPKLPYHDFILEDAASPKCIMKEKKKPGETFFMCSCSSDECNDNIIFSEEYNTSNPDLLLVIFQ
# test-method-notes: BLI (Octet)
# Kd per record follows
State just the number; it will be interpreted in nM.

Example entries begin here.
H1.103 L1 XENP34559 (antibody, V domains shown) VH: QLQVQESGPGLVKPSETLSLTCTVSGGSISNSYFSWGWIRQPPGKGLEWIGSFYYGEKTYYNPSLKSRATISIDTSKSQFSLKLSSVTAADTAVYYCPRGPTMIRGVIDLWGQGTLVTVSS VL: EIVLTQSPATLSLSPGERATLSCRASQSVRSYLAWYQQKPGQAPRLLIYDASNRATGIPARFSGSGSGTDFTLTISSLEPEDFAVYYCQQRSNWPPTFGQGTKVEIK = 0.16
H1.78 L1 XENP34534 (antibody, V domains shown) VH: QLQVQESGPGLVKPSETLSLTCTVSGGSISNSYFSWGWIRQPPGKGLEWIGSFYYGEKTYYNPSLKSRATISIDTSKSQFSLKLSSVTAADTAVYYCARGPTMIRGVIDSWGQGTLVTVSS VL: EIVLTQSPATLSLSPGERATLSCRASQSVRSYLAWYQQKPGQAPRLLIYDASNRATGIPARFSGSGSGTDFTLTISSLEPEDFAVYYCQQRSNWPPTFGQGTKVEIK = 0.699
H1 L1.4 XENP34567 (antibody, V domains shown) VH: QLQVQESGPGLVKPSETLSLTCTVSGGSISNSYFSWGWIRQPPGKGLEWIGSFYYGEKTYYNPSLKSRATISIDTSKSQFSLKLSSVTAADTAVYYCPRGPTMIRGVIDSWGQGTLVTVSS VL: EIVLTQSPATLSVSPGERATLSCRASQSVRSYLAWYQQKPGQAPRLLIYDASNRATGIPARFSGSGSGTDFTLTISSLEPEDFAVYYCQQRSNWPPTFGQGTKVEIK = 0.601

Data request: What does the record list as Kd for H1.91 L1 XENP34547 (antibody, V domains shown) VH: QLQVQESGPGLVKPSETLSLTCTVSGGSISNSYFSWGWIRQPPGKGLEWIGSFYYGEKTYYNPSLKSRATISIDTSKSQFSLKLSSVTAADTAVYYCPRGPTMVRGVIDSWGQGTLVTVSS VL: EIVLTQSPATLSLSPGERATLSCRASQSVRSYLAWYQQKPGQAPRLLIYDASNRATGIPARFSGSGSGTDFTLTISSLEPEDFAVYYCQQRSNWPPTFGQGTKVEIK ?
Data returned: 0.512

Data request: Suppose we examine the binder H1.102 L1 XENP34558 (antibody, V domains shown) VH: QLQVQESGPGLVKPSETLSLTCTVSGGSISNSYFSWGWIRQPPGKGLEWIGSFYYGEKTYYNPSLKSRATISIDTSKSQFSLKLSSVTAADTAVYYCPRGPTMIRGVIDHWGQGTLVTVSS VL: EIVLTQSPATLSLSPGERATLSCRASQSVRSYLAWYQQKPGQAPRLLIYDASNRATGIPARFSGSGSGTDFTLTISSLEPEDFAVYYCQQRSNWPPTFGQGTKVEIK ; what Kd value has been reported?
Data returned: 0.139

Ref: patent US20220144956A1
